# assayProcedure: viability loss in pontine glioma line – cell-based, SU-DIPG-XIII, MIPE5.0, CellTiter-Glo, qHTS, dose response (AID 1347064);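 as to AC50: cells exposed to compound for 48 hours before the viability read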
# statedConditions: CellTiter-Glo ATP luminescence
Records with an inconclusive call do not appear. Activity calls are given as the source filed them. The limit is not given here; nearly all actives have AC50 up to about 23 µM.
Classes used: active, inactive

{"columns": ["compound", "assignedCategory"],
 "data": [
  ["COc1cc(Oc2ccnc3cc(OC)c(OC)cc23)ccc1NC(=O)NC(C)c1nccs1 (stereo not drawn)", "inactive"],
  ["O=C(c1ccc(Nc2nc(C3CC3)cn3c(-c4cn[nH]c4)cnc23)c(F)c1)N1CCOCC1", "active"],
  ["CN1CCN(c2nc(C3=C(c4c[nH]c5ccccc45)C(=O)NC3=O)c3ccccc3n2)CC1", "inactive"],
  ["Cc1ccc2nc(NC(=O)CSc3nc4c(c(=O)n3-c3ccccc3)SCC4)sc2c1", "inactive"],
  ["NCc1ccc(OCCCc2sc(-c3ccc4c(c3)/C(=N/Nc3nc5ccccc5s3)CCC4)nc2C(=O)O)cc1", "inactive"],
  ["Cc1c(NC(=O)c2cc(C(N)=O)nc3cc(F)ccc23)c(C(F)(F)F)nn1Cc1ccc(C(C)(C)C)cc1", "active"],
  ["NC1CCCN(c2c(/C=C3\\SC(=O)NC3=O)cccc2-c2ccccc2)C1 (stereo not drawn)", "inactive"],
  ["NC(=O)Nc1cc(-c2ccc(CN3CCOCC3)cc2)sc1C(N)=O", "active"],
  ["COc1cc(C(C)C)c(Oc2cnc(NC(CO)CO)nc2N)cc1I", "inactive"],
  ["CCN(CC)CCNC(=O)c1ccc2nc(-c3ccccc3)c(-c3ccc(CN4CCC(n5c(=O)[nH]c6ccccc65)CC4)cc3)nc2c1", "active"],
  ["CCC(=O)N1CCOc2c(cc(-c3cc(OC)cc(OC)c3)cc2C(=O)N[C@H]2CCCN(C)C2)C1", "inactive"],
  ["Cc1cnc(Nc2ccc(F)cc2Cl)nc1-c1c[nH]c(C(=O)NC(CO)c2cccc(Cl)c2)c1 (stereo not drawn)", "active"],
  ["Cn1c(=O)c(-c2c(Cl)cccc2Cl)cc2cnc(Nc3cccc(C(=O)O)c3)nc21", "active"],
  ["CC(=O)O[C@H]1C[C@@H]2CC[C@@H]3[C@H](CC[C@@]4(C)[C@H]3C[C@H]([N+]3(C)CCCCC3)[C@@H]4OC(C)=O)[C@@]2(C)C[C@@H]1[N+]1(C)CCCCC1", "inactive"],
  ["Cn1cc(-c2ccc3c(c2)CCN3C(=O)Cc2cccc(C(F)(F)F)c2)c2c(N)ncnc21", "inactive"],
  ["c1cn2cc(-c3ccc4cn[nH]c4c3)nc(Nc3ccc(N4CCOCC4)cc3)c2n1", "active"],
  ["N#Cc1ccc(N(Cc2ccc(Br)cc2)n2cnnc2)cc1", "inactive"],
  ["CC(C)c1cc(-c2n[nH]c(=O)n2-c2ccc3c(ccn3C)c2)c(O)cc1O", "active"]
]}

###

# assayProcedure: drug combination growth inhibition, ovarian cancer – cell-based, oncology-focused library, rucaparib conditional, profiling panel (AID 1508598)
# statedConditions: patient-derived ovarian cancer cells, CellTiter-Glo viability, 144 h; at 0.0195 µM; OCI-C5x cells; with rucaparib 10 µM; stronger effect = lower value; 100% = cells with rucaparib alone

{"columns": ["cpdSmiles", "viability [%]"],
 "data": [
  ["Oc1cccc(-c2nc(N3CCOCC3)c3oc4ncccc4c3n2)c1", 79.3],
  ["Nc1ccc(-c2ccc3ncc4ccc(=O)n(-c5cccc(C(F)(F)F)c5)c4c3c2)cn1", 113],
  ["O=C(O)c1ccc2c(c1)nc(Nc1cccc(Cl)c1)c1ccncc12", 98],
  ["CN(C)C/C=C/C(=O)Nc1cc2c(Nc3ccc(F)c(Cl)c3)ncnc2cc1O[C@H]1CCOC1", 70.1],
  ["CN(C)N=Nc1nc[nH]c1C(N)=O", 105],
  ["C[C@H](NC(=O)Cc1cc(F)cc(F)c1)C(=O)N[C@@H]1C(=O)N(C)c2ccccc2-c2ccccc21", 122],
  ["CC1(C)CCC(c2ccc(Cl)cc2)=C(CN2CCN(c3ccc(C(=O)NS(=O)(=O)c4ccc(N[C@H](CCN5CCOCC5)CSc5ccccc5)c(S(=O)(=O)C(F)(F)F)c4)cc3)CC2)C1", 19.9],
  ["CC(C)(C)c1cc(NC(=O)Nc2ccc(-c3cn4c(n3)sc3cc(OCCN5CCOCC5)ccc34)cc2)no1", 107],
  ["CCC[C@H](NC(=O)/C(C#N)=C/c1cccc(Br)n1)c1ccccc1", 111],
  ["CCCCCCCCc1ccc(CCC(N)(CO)CO)cc1", 111]
]}

###

# assayProcedure: viability loss in pontine glioma line – cell-based, SU-DIPG-XXV, MIPE5.0, CellTiter-Glo, qHTS, dose response (AID 1347065);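 also: cells exposed to compound for 48 hours before ATP readout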
# statedConditions: CellTiter-Glo ATP luminescence
Inconclusive results are not listed. Activity calls are given as the source filed them. No cut-off is given here; in the data, nearly all actives have AC50 up to about 26 µM.

{"columns": ["molecule", "AC50"],
 "data": [
  ["COc1ccc(N2C(=O)N(c3c(C)cccc3Cl)Cc3cnc(Nc4ccc(C5CCN(C)CC5)cc4OC)nc32)nc1", "9.34 µM (active)"],
  ["CN1CCN(C2CCN(C(=O)Nc3cc(Oc4ccc(NC(=O)C5(C(=O)Nc6ccc(F)cc6)CC5)c(F)c4)ccn3)CC2)CC1", "13.2 µM (active)"],
  ["CCc1cc(C(N)=O)ccc1-n1nc(C(C)C)c2c(-n3cnc(-c4cnn(C)c4)c3)ccnc21", "1.86 µM (active)"],
  ["O=C(c1ccc(Nc2nc(C3CC3)cn3c(-c4cn[nH]c4)cnc23)c(F)c1)N1CCOCC1", "3.72 µM (active)"],
  ["Nc1ccc(C(=O)c2cc3c(ccc4ccccc43)[nH]2)cc1", "2.15 µM (active)"],
  ["NCc1c[nH]c(=S)n1[C@H]1CCc2c(F)cc(F)cc2C1", "inactive"],
  ["COc1ccc2c(c1)CC[C@@H]1[C@@H]2CC[C@]2(C)[C@@H](NCCCCCCN3C(=O)C=CC3=O)CC[C@@H]12", "inactive"],
  ["CCc1c(C(=O)NNC(=O)[C@@H](O)c2cc(F)cc(F)c2)ccc(O)c1C", "inactive"],
  ["O=C(Nc1ncc(-c2cc(C(F)F)nn2-c2c(Cl)cccc2Cl)s1)C1CC1", "1.05 µM (active)"],
  ["Nc1nc(OCc2ccccc2)c2[nH]cnc2n1", "inactive"],
  ["CCS(=O)(=O)N1CCC([C@@H](C)n2c(C)c(C(=O)NCc3c(OC)cc(C)[nH]c3=O)c3ccccc32)CC1", "inactive"],
  ["CC(C)c1cc(-c2n[nH]c(=O)n2-c2ccc3c(ccn3C)c2)c(O)cc1O", "0.0372 µM (active)"],
  ["CC(=O)OCCN1C(=O)c2c(C)nc3ccc(S(=O)(=O)N4CCOCC4)cc3c2C1=O", "inactive"],
  ["Cc1ccc(O)c(C(CCN(C(C)C)C(C)C)c2ccccc2)c1 (centres undefined)", "inactive"],
  ["CCN1CCN(Cc2ccc(NC(=O)Nc3ccc(Oc4cc(NC)ncn4)cc3)cc2C(F)(F)F)CC1", "10.5 µM (active)"],
  ["O=C(Nc1ccc2c(=O)cc(-c3nn[nH]n3)oc2c1)c1ccc(OCCCCc2ccccc2)cc1", "inactive"],
  ["C[C@H]1CN(C[C@H](Cc2ccccc2)C(=O)NCC(=O)O)CC[C@@]1(C)c1cccc(O)c1", "inactive"],
  ["O=c1sn(-c2cccc3ccccc23)c(=O)n1Cc1ccccc1", "14.8 µM (active)"],
  ["CC(=O)N1CCC(Nc2cc(C(=O)NC[C@H](O)CN3CCc4ccccc4C3)ncn2)CC1", "inactive"]
]}

###

# fold change per record follows
# assayProcedure: viability loss with induced miR-34 in A549 – imaging, A549 dox-inducible miR-34, nuclei and caspase counts, primary screen (AID 1347080)
# statedConditions: A549 miR-34 inducible, Hoechst nuclei count, 48 h; measured here: relative caspase fold change +Dox/-Dox

{"columns": ["cpdSmiles", "fold change"],
 "data": [
  ["CCCCC/C=C\\C/C=C\\C/C=C\\CCCCCCC(=O)OCC", 0.794],
  ["CCCCCC(=O)CC[C@@H]1[C@@H](C/C=C\\CCCC(=O)OC(C)C)[C@@H](O)C[C@H]1O", 1.56],
  ["CCOC(=O)c1ncc2[nH]c3cccc(OC(C)C)c3c2c1C", 0.813],
  ["CCOc1ccn(-c2ccc(F)cc2)c(=O)c1C(=O)Nc1ccc(Oc2ccnc(N)c2Cl)c(F)c1", 0.507],
  ["CCCCCCCCCCCCCCCCCCCCCCCCCCCCCCO", 0.745]
]}

###

# assayProcedure: chitosan synthesis blockers in C. neoformans – flow cytometry, Cibacron Brilliant Red staining (AID 1347148);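 also: compound exposure lasted three days at 37 degrees C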
# statedConditions: Cryptococcus neoformans chitosan, stronger effect = lower value; at 10 µM unless noted
Active and inactive are the calls of the source. The rule behind the calls is not given here.

{"columns": ["compound", "fold fluorescence"],
 "data": [
  ["CC/C=C\\C/C=C\\C/C=C\\C/C=C\\C/C=C\\CCCCCC(=O)O", "5.56 (inactive)"],
  ["C[C@@]1(C2CCCC2)Cc2cc(OCC(=O)O)c(Cl)c(Cl)c2C1=O", "4.41 [at 140 µM] (inactive)"],
  ["CCCCC[C@H](O)/C=C/[C@H]1C(=O)C=C[C@@H]1C/C=C\\CCCC(=O)O", "4.57 (inactive)"],
  ["Cc1ccc(S(=O)(=O)N[C@@H](Cc2ccccc2)C(=O)CCl)cc1", "6.27 [at 142.1 µM] (inactive)"],
  ["CS(=O)(=O)Nc1ccc([N+](=O)[O-])cc1OC1CCCCC1", "5.81 [at 159.1 µM] (inactive)"],
  ["O=c1[nH]c2cc(C(F)(F)F)ccc2n1-c1cc(C(F)(F)F)ccc1O", "3.32 [at 138 µM] (inactive)"],
  ["CCCCC/C=C\\C/C=C\\CCCCCCCCCC(=O)O", "3.91 (inactive)"],
  ["CC(C)=CCC/C(C)=C/CC/C(C)=C/CSCC(=O)O", "2.64 (inactive)"],
  ["NC(=S)NCCC[C@H](N)C(=O)O", "2.92 [at 261.4 µM] (inactive)"],
  ["CC/C=C\\C/C=C\\C/C=C\\CCCCCCCCCC(=O)O", "4.88 (inactive)"],
  ["O=C1NC(O)=NC1(c1ccccc1)c1ccccc1", "4.71 [at 198.2 µM] (inactive)"],
  ["CCCCC/C=C\\C/C=C\\C/C=C\\CCCCC(=O)O", "4.86 (inactive)"],
  ["CCCCC/C=C/C=C1/C(=O)C=C[C@@H]1C/C=C\\CCCC(=O)O", "6.54 (inactive)"],
  ["CC12C(=O)OC(=O)C1(C)C1CCC2O1 (stereo not given)", "5.03 [at 254.8 µM] (inactive)"],
  ["Cn1c2ccccc2c2c3c(c4c5ccccc5n(CCC#N)c4c21)CNC3=O", "3.75 [at 132.1 µM] (inactive)"],
  ["CCCCC/C=C\\C/C=C\\C/C=C\\C/C=C\\CCCCCC(=O)O", "4.08 (inactive)"],
  ["CCCCCCCC/C=C\\C/C=C\\C/C=C\\CCCC(=O)O", "4.51 (inactive)"],
  ["CC(=O)OCOC(=O)CN(CC(=O)OCOC(C)=O)c1ccccc1OCCOc1ccccc1N(CC(=O)OCOC(C)=O)CC(=O)OCOC(C)=O", "5.04 [at 65.4 µM] (inactive)"],
  ["CCCCCCCCCCCCC/C=C/[C@@H](O)[C@H](CO)NC(=O)CCCCCCC", "4.66 (inactive)"],
  ["O=c1oc(Cl)c(Cl)c2ccccc12", "6.4 [at 232.5 µM] (inactive)"]
]}
